Data provenance: patent US20240400708A1

- TARGET_OR_TEST_SYSTEM: feline FcRn complex (FcRn-α subunit and β-microglobulin) (feline)
- METHOD_DESCRIPTION: SPR (Biacore), FcRn on SA chip, pH 6
READOUT_LABEL: Kd (nM)
Output spec: scalar in nM, unitless text.

| BINDER | Kd, nM |
| --- | --- |
| feline IgG1a mutant ID No. 298: S428Y, Q311W, D312P, L314K (antibody, part only; not given: Variable domains, not shown: another chain or arm of the molecule) constant: ASTTAPSVFPLAPSCGTTSGATVALACLVLGYFPEPVTVSWNSGALTSGVHTFPAVLQASGLYSLSSMVTVPSSRWLSDTFTCNVAHPPSNTKVDKTVRKTDHPPGPKPCDCPKCPPPEMLGGPSIFIFPPKPKDTLSISRTPEVTCLVVDLGPDDSDVQITWFVDNTQVYTAKTSPREEQFNSTYRVVSVLPILHWPWKKGKEFKCKVNSKSLPSPIERTISKAKGQPHEPQVYVLPPAQEELSRNKVSVTCLIKSFHPPDIAVEWEITGQPEPENNYRTTPPQLDSDGTYFVYSKLSVDRSHWQRGNTYTCSVYHEALHSHHTQKSLTQSPGK | 25.3 |

response.value for feline IgG1a mutant ID No. 289: S252Y, S428Y, L314K, S434Y (antibody, part only; not given: Variable domains, not shown: another chain or arm of the molecule) constant: ASTTAPSVFPLAPSCGTTSGATVALACLVLGYFPEPVTVSWNSGALTSGVHTFPAVLQASGLYSLSSMVTVPSSRWLSDTFTCNVAHPPSNTKVDKTVRKTDHPPGPKPCDCPKCPPPEMLGGPSIFIFPPKPKDTLYISRTPEVTCLVVDLGPDDSDVQITWFVDNTQVYTAKTSPREEQFNSTYRVVSVLPILHQDWKKGKEFKCKVNSKSLPSPIERTISKAKGQPHEPQVYVLPPAQEELSRNKVSVTCLIKSFHPPDIAVEWEITGQPEPENNYRTTPPQLDSDGTYFVYSKLSVDRSHWQRGNTYTCSVYHEALHYHHTQKSLTQSPGK (field: Kd) = 0.808
